Recorded protein stability index values for a group of sequences are listed next.
assay explanation: protein stability index of a GFP-peptide fusion (yeast GPS) (PSI 1-4); higher = more stable; sorted into four equal gates, so the index is relative within each strain
experimental parameters: ubr1∆
// return just the number, without any unit appended

In the examples that follow, each entry is paired with its recorded protein stability index.
Please report the recorded protein stability index for LETLFNRWHSESWANQL [FAS2] .
3.02

Please report the recorded protein stability index for TMTISHLLLGFQVSNVI [YJL039C/NUP192] .
1.77

Please report the recorded protein stability index for ENELFNDRKQTTVSNDL [SSN2] .
3.02

Please report the recorded protein stability index for FQAVIQKSINHPPDFKR [SNF2] .
3.19

Please report the recorded protein stability index for RNEKRMFLEFQSTQTDL [SMC2] .
2.61

New cases:
Please report the recorded protein stability index for NIGETAGVVQDIGSDPT [RPB9] .
2.92

Please report the recorded protein stability index for LLTCYELEKKYHGNECE [SRB8] .
3.21

Please report the recorded protein stability index for EQLSEEDAKLKTDLELL [RPN1] .
3

Please report the recorded protein stability index for GRNIGHPIIQDKEGNGV [RPB3] .
3.15

Please report the recorded protein stability index for VTSADSNLKISLVKYPE [SWI1] .
2.75

Please report the recorded protein stability index for KVSAREKSAYKFFHNGM [FAS2] .
3.54

Please report the recorded protein stability index for LKESYSQKHNGRILKWL [CDC53] .
2.14

Please report the recorded protein stability index for HTSPHQPSDVKPTSHKQ [SIR4] .
2.52

Please report the recorded protein stability index for TYSFIDNDRFNVVGKLI [YML103C/NUP188] .
2.16

Please report the recorded protein stability index for AETIILSSAGKNSSVSS [SRB5] .
1.89

Please report the recorded protein stability index for NKSFIVDQGQIYRDRST [ITC1] .
3.32

Please report the recorded protein stability index for NTSAIQETASPLSQDEL [YIL149C/MLP2] .
1.25

###

assay explanation: protein stability index of a GFP-peptide fusion (yeast GPS) (PSI 1-4); higher = more stable; sorted into four equal gates, so the index is relative within each strain
experimental parameters: pdr5∆
Grouping rule (protein stability index): LOW (below 2), MEDIUM (2 to below 3), HIGH (3 or more)

GET /class?item= LKKGEVSLGTSIMAVTF [PRE3]
LOW

GET /class?item= MATLEELDAQTLPGDDE [RPT5]
HIGH

GET /class?item= NGEEDEVALFSQKAKLM [YLR335W/NUP2]
LOW

###

assay explanation: protein stability index of a GFP-peptide fusion (yeast GPS) (PSI 1-4); higher = more stable; sorted into four equal gates, so the index is relative within each strain
experimental parameters: san1∆
Quick rule for you: protein stability index at 2 or higher means fulfilled, lower means not fulfilled.

Record excerpt, results attached:
Identify whether the reported protein stability index of the following sequence is 2 or greater: FLDGIYVSHKGFITEDL [RPL9A]
fulfilled

Identify whether the reported protein stability index of the following sequence is 2 or greater: VWAPTQKCFKLTHRLGG [POP1]
fulfilled

Identify whether the reported protein stability index of the following sequence is 2 or greater: KPSFSFGVPNSSKNETS [YLR335W/NUP2]
fulfilled

Identify whether the reported protein stability index of the following sequence is 2 or greater: EKLTLVTLSEIYNELSY [CSN9]
not fulfilled

Identify whether the reported protein stability index of the following sequence is 2 or greater: LHGNAKKAAEEAGVTDV [FAS2]
fulfilled

New cases:
Identify whether the reported protein stability index of the following sequence is 2 or greater: AHLWQKIHESIVFDICQ [PRP8]
fulfilled

Identify whether the reported protein stability index of the following sequence is 2 or greater: NKLLGNVTIAQGGVLPN [HTA1]
not fulfilled

Identify whether the reported protein stability index of the following sequence is 2 or greater: TGAASNQSSFNFGNNGA [YOR098C/NUP1]
fulfilled

Identify whether the reported protein stability index of the following sequence is 2 or greater: IEDVTPVPSDSTRKKGG [RPS14B]
fulfilled

Identify whether the reported protein stability index of the following sequence is 2 or greater: AYGNWFNGLKPLIQNSM [PRP8]
fulfilled

Identify whether the reported protein stability index of the following sequence is 2 or greater: AYFMVGAMGLLSSAGAK [RIP1]
fulfilled

Identify whether the reported protein stability index of the following sequence is 2 or greater: IPSSKIDDFTTRLWGSV [SNU114]
fulfilled

Identify whether the reported protein stability index of the following sequence is 2 or greater: ILSQQFDKIIKIREDHI [SRB8]
fulfilled

Identify whether the reported protein stability index of the following sequence is 2 or greater: TDTSTTATAATNGNNAG [MED6]
fulfilled

Identify whether the reported protein stability index of the following sequence is 2 or greater: EDSMIMNQSSIDRGLFR [RPB2]
fulfilled

Identify whether the reported protein stability index of the following sequence is 2 or greater: TSASNTSMNGVHNTVAA [SNF5]
fulfilled

Value source: the supplement of paper PMC9732359
